Where do these numbers come from? They come from ChEMBL document CHEMBL3351803.

target: Dual specificity mitogen-activated protein kinase kinase 1 (Homo sapiens); test: Inhibition of MAP2K1 (unknown origin) using unphosphorylated GST-tagged ERK2 substrate protein assessed as phosphorylation by ELISA
Sequence (Q02750 whole entry): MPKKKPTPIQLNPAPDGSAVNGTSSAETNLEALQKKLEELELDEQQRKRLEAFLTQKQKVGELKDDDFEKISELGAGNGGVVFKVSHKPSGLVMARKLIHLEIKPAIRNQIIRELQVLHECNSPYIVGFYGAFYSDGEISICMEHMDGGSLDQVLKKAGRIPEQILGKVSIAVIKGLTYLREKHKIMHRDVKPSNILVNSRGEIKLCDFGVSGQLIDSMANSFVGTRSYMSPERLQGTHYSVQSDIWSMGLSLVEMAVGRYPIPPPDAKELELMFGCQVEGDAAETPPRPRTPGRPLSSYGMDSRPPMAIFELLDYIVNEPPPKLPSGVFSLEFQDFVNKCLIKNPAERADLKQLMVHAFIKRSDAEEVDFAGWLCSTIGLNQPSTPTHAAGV
assay.metric: IC50 (nM)
Answer with a number only, understood to be in nM.

Could you share which IC50 value was measured for COc1cc(O)c2c(c1)/C=C/C[C@H](O)[C@H](O)C(=O)/C=C\C[C@H](C)OC2=O ?
80

* * *

target: Mitogen-activated protein kinase 1 (Homo sapiens, UniProt P28482); assay: Inhibition of ERK2 (unknown origin) using FITC-labeled substrate peptide assessed as phosphorylation
Sequence (P28482 whole entry): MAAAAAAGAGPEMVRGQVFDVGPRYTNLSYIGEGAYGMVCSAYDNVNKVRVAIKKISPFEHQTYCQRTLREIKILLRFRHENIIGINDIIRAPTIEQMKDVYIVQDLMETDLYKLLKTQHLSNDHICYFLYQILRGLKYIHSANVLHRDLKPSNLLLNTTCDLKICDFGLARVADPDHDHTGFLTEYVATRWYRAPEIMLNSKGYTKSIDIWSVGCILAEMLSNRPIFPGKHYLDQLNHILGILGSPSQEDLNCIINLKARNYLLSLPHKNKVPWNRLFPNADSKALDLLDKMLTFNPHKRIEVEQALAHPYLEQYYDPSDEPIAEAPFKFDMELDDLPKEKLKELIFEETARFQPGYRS
assay.metric: pIC50
API: returns pIC50 as number; meaning -log10 of concentration in mol/L.

Could you share which pIC50 value was measured for COc1cc(O)c2c(c1)/C=C/C[C@H](O)[C@H](O)C(=O)/C=C\C[C@H](C)OC2=O ?
5.17
